All values here come from patent US20260028354A1.

SYSTEM_NAME: ER in MCF-7 cells (Homo sapiens (Human), UniProt P03372)
Sequence (P03372 whole entry): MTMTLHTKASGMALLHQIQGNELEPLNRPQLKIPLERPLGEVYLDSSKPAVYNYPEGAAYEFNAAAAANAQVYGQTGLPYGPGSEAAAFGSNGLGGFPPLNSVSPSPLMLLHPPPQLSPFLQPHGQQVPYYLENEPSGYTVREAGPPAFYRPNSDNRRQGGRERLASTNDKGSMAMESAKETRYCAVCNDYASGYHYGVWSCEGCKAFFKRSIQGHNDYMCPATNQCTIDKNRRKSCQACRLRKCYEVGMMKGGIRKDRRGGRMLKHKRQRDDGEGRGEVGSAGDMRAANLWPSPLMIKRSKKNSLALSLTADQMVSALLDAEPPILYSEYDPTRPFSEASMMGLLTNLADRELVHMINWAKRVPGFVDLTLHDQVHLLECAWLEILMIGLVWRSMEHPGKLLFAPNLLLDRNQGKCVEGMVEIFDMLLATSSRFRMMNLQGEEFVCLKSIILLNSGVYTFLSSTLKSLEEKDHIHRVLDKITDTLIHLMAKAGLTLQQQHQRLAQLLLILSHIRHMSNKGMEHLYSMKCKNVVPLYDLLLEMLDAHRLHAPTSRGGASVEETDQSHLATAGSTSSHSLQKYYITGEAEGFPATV
EXPERIMENT_NOTES: In-cell Western (ICW) ER degradation assay in MCF-7 cells
Format: cell-based
CONDITION_DESCRIPTION: MCF7, MCF-7, maximal ER degradation, 16 hrs treatment; read-out: MCF7 Dmax
RECORDED_ENDPOINT: Dmax

Missing value: Dmax, ER in MCF-7 cells (Homo sapiens (Human), UniProt P03372), entry O=C1CC[C@H](N2Cc3cc4c(cc3C2=O)OC[C@@H]2CN(CC3CC5(CCN(c6ncc([C@H]7c8ccc(O)cc8CC[C@H]7c7ccccc7)cn6)CC5)C3)CCN42)C(=O)N1 (single isomer, unassigned) . Fill in?
50 to 75%

###

SYSTEM_NAME: ER in MCF-7 cells (Homo sapiens (Human), UniProt P03372)
EXPERIMENT_NOTES: In-cell Western (ICW) ER degradation assay in MCF-7 cells
Format: cell-based
CONDITION_DESCRIPTION: MCF-7, ER degradation, 16 hrs treatment; read-out: MCF7 DC50
// DC50 lookup, one value per entry

COc1c([C@@H]2c3ccc(O)cc3CC[C@@H]2c2ccccc2)ccc(N2CCC3(CC2)CC(CN2CCC4(CC2)COc2c4ccc4c2CN([C@H]2CCC(=O)NC2=O)C4=O)C3)c1F    < 1 nM
O=C1CCC(NC(=O)c2ccc3c(n2)OC[C@H]2CN(CC4CCN(c5ccc([C@@H]6c7ccc(O)cc7CC[C@@H]6c6ccccc6)cc5)CC4)CCN32)C(=O)N1 (stereo partly shown)    < 1 nM

Missing value: DC50, ER in MCF-7 cells (Homo sapiens (Human), UniProt P03372), entry O=C1CC[C@H](N2Cc3cc4c(cc3C2=O)OC[C@@H]2CN(CC3CCC5(CC3)CN(c3ncc([C@H]6c7ccc(O)cc7CC[C@H]6c6ccccc6)cn3)C5)CCN42)C(=O)N1 (single isomer, unassigned) . Fill in?
10 to 100 nM

Queued: `COc1cc(N2CCC(CN3CCN4c5cc6c(cc5OC[C@@H]4C3)C(=O)N([C@H]3CCC(=O)NC3=O)C6)CC2)c(F)cc1[C@@H]1c2ccc(O)cc2CC[C@@H]1c1ccccc1`
< 1 nM

###

SYSTEM_NAME: CRBN/DDB1 (Homo sapiens (Human))
CONDITION_DESCRIPTION: His tagged CRBN+DDB1, Cy5-labeled Thalidomide probe, one hour; read-out: CRBN HTRF IC50
RECORDED_ENDPOINT: IC50

O=C1CC[C@H](N2Cc3c(ccc4c3OC[C@H]3CN(C5CN(CCOc6ccc([C@@H]7c8ccc(O)cc8CC[C@@H]7c7ccccc7)cc6)C5)CCN43)C2=O)C(=O)N1 [Compound A79]    < 50 nM
O=C1CC[C@H](N2Cc3c(ccc4c3OCC43CCN(CC4CC5COCC(C4)N5c4ccc([C@@H]5c6ccc(O)cc6CC[C@@H]5c5ccccc5)cc4)CC3)C2=O)C(=O)N1 (stereo partly shown) [Compound A81]    < 50 nM
O=C1CC[C@H](N2Cc3c(ccc4c3OC[C@H]3CN(CC5CC6COCC(C5)N6c5ccc([C@@H]6c7ccc(O)cc7CC[C@@H]6c6ccccc6)cc5)CCN43)C2=O)C(=O)N1 (stereo partly shown) [Compound A83]    50 to 500 nM
COc1cc(N2CCC3(CC2)CC(CN2CCC4(CC2)COc2c4ccc4c2CN([C@H]2CCC(=O)NC2=O)C4=O)C3)c(F)cc1[C@@H]1c2ccc(O)cc2CC[C@@H]1c1ccccc1 [Compound A100]    < 50 nM
O=C1CC[C@H](N2Cc3cc4c(cc3C2=O)OCC42CCN(CC3CC4(CCN(c5ccc([C@@H]6c7ccc(O)cc7CC[C@@H]6c6ccccc6)cn5)CC4)C3)CC2)C(=O)N1 [Compound A126]    50 to 500 nM

Entry under review: O=C1CC[C@@H](Nc2ccc(C3CCN(C[C@@H]4COC5(CCN(c6ccc([C@H]7c8ccc(O)cc8CC[C@H]7c7ccccc7)cc6)CC5)C4)CC3)c(F)c2)C(=O)N1 (single isomer, unassigned) [Compound A60] . Reported IC50?
50 to 500 nM

Queued: COc1cc(N2CCC(CN3CCC(c4ccc(N[C@H]5CCC(=O)NC5=O)c(F)c4)CC3)CC2)c(F)cc1[C@@H]1c2ccc(O)cc2CC[C@@H]1c1ccccc1 [Compound A118]
500 to 5000 nM

###

// DC50 lookup, one value per entry
SYSTEM_NAME: ER in T47D cells (Homo sapiens (Human))
EXPERIMENT_NOTES: In-cell Western (ICW) ER degradation assay in T47D cells
Assay type: cell-based
CONDITION_DESCRIPTION: ER degradation, 16 hrs treatment

Below are worked cases with known answers.
COc1cc(N2CCC3(CC2)CC(CN2CCN4c5cc6c(cc5OC[C@@H]4C2)C(=O)N([C@H]2CCC(=O)NC2=O)C6)C3)ccc1[C@H]1c2ccc(O)cc2CC[C@H]1c1ccccc1 (single isomer, unassigned)    1 to 10 nM
COc1cc(N2CCC3(CC2)CC(CN2CCN4c5ccc6c(c5OC[C@H]4C2)CN([C@H]2CCC(=O)NC2=O)C6=O)CO3)ccc1[C@H]1c2ccc(O)cc2CC[C@H]1c1ccccc1 (single isomer, unassigned)    < 1 nM
COc1cc(N2CCC3(CC2)CC(CN2CCN4c5cc6c(cc5OC[C@@H]4C2)C(=O)N([C@H]2CCC(=O)NC2=O)C6)CO3)ccc1[C@H]1c2ccc(O)cc2CC[C@H]1c1ccccc1 (single isomer, unassigned)    < 1 nM
O=C1CC[C@H](Nc2ccc(C3CCN(C[C@H]4COC5(CCN(c6ccc([C@@H]7c8ccc(O)cc8CC[C@@H]7c7ccccc7)cc6)CC5)C4)CC3)cc2)C(=O)N1 (single isomer, unassigned)    > 100 nM
COc1cc(N2CCC(CN3CCC4(CC3)COc3cc5c(cc34)CN([C@H]3CCC(=O)NC3=O)C5=O)CC2)c(F)cc1[C@@H]1c2ccc(O)cc2CC[C@@H]1c1ccccc1    < 1 nM

Entry under review: COc1cc(N2CCC3(CC2)CC(CN2CCC(c4ccc(N[C@@H]5CCC(=O)NC5=O)cc4)CC2)C3)c(F)cc1[C@H]1c2ccc(O)cc2CC[C@H]1c1ccccc1 (single isomer, unassigned) . Reported DC50?
10 to 100 nM

Queued: O=C1CC[C@@H](Nc2ccc(C3CCN(C[C@@H]4COC5(CCN(c6ccc([C@@H]7c8ccc(O)cc8CC[C@@H]7c7ccccc7)cc6)CC5)C4)CC3)c(F)c2)C(=O)N1 (single isomer, unassigned)
1 to 10 nM

###

SYSTEM_NAME: ER in T47D cells (Homo sapiens (Human), UniProt P03372)
Sequence (P03372 whole entry): as above
EXPERIMENT_NOTES: In-cell Western (ICW) ER degradation assay in T47D cells
Type: cell-based
CONDITION_DESCRIPTION: ER degradation, 16 hrs treatment
RECORDED_ENDPOINT: DC50

COc1cc(N2CCC3(CC2)CC(CN2CCC(c4ccc(N[C@@H]5CCC(=O)NC5=O)cc4)CC2)C3)c(F)cc1[C@@H]1c2ccc(O)cc2CC[C@@H]1c1ccccc1 (single isomer, unassigned)    < 1 nM

Consider the additional compound presented here.
Entry under review: O=C1CC[C@H](N2Cc3cc4c(cc3C2=O)OC[C@@H]2CN(CC3COC5(C3)CN(c3ccc([C@H]6c7ccc(O)cc7CC[C@H]6c6ccccc6)cc3)C5)CCN42)C(=O)N1 (single isomer, unassigned) . Reported DC50?
< 1 nM

###

// Dmax lookup, one value per entry
SYSTEM_NAME: ER in MCF-7 cells (Homo sapiens (Human))
EXPERIMENT_NOTES: In-cell Western (ICW) ER degradation assay in MCF-7 cells
Assay type: cell-based
CONDITION_DESCRIPTION: MCF7, read-out: MCF7 Dmax, MCF-7, maximal ER degradation, 16 hrs treatment

COc1c([C@@H]2c3ccc(O)cc3CC[C@@H]2c2ccccc2)ccc(N2CCC3(CC2)CC(CN2CCC4(CC2)COc2cc5c(cc24)CN([C@H]2CCC(=O)NC2=O)C5=O)C3)c1F    50 to 75%

Entry under review: O=C1CCC(Nc2ccc(C34CCN(C[C@H]5COC6(CCN(c7ccc([C@@H]8c9ccc(O)cc9CC[C@@H]8c8ccccc8)cc7)CC6)C5)CC3C4(F)F)cc2)C(=O)N1 (some centres unmarked) . Reported Dmax?
< 25%

Queued: `COc1cc(N2CCC3(CC2)C[C@H](CN2CCC4(CC2)COc2c4ccc4c2CN([C@H]2CCC(=O)NC2=O)C4=O)CO3)c(F)cc1[C@@H]1c2ccc(O)cc2CC[C@@H]1c1ccccc1`
> 75%

Queued: `Cc1cc2c(c3c1C(=O)N([C@H]1CCC(=O)NC1=O)C3)OCC21CCN(C[C@H]2CCC3(CCN(c4ccc([C@@H]5c6ccc(O)cc6CC[C@@H]5c5ccccc5)cc4)CC3)OC2)CC1`
> 75%

Queued: `O=C1CC[C@H](N2Cc3c4c(cc(Cl)c3C2=O)C2(CCN(C[C@H]3CCC5(CCN(c6ccc([C@@H]7c8ccc(O)cc8CC[C@@H]7c7ccccc7)cc6)CC5)OC3)CC2)CO4)C(=O)N1`
> 75%
